# Test system: A549
# Procedure Details: In vitro growth inhibition of A549, lung carcinoma.
# Type: functional, cell-based
# Condition Notes: Homo sapiens
Listing of entries alongside the reported EC50.

COC(=O)Oc1cc2c(c(OC(=O)OC)c1OC(=O)OC)-c1ccc(SC)c(=O)cc1[C@@H](NC(=O)c1ccc([N+](=O)[O-])cc1)CC2 | 24.2 µg/mL

// Br.CSc1ccc2c(cc1=O)[C@@H](N)CCc1cc(O)c(O)c(O)c1-2 : EC50 value = > 13.2 µg/mL

molecule CCC(=O)Oc1cc2c(c(OC(=O)CC)c1OC(=O)CC)-c1ccc(SC)c(=O)cc1[C@@H](NC(=O)c1ccc([N+](=O)[O-])cc1)CC2 , EC50 observed: > 25.9 µg/mL

Reported EC50 for CSc1ccc2c(cc1=O)[C@@H](NC(=O)c1cc(O)c(O)c(O)c1)CCc1cc(O)c(O)c(O)c1-2 was > 9.6 µg/mL

According to the records, this molecule CSc1ccc2c(cc1=O)[C@@H](NC(=O)c1ccc(N)cc1)CCc1cc(O)c(O)c(O)c1-2 displays EC50 of > 18 µg/mL

// recorded EC50 for COc1cc2c(c(OC)c1OC)-c1ccc(OC)c(=O)cc1[C@@H](NC(C)=O)CC2 : 0.022 µg/mL

Consider CSc1ccc2c(cc1=O)[C@@H](NC(=O)c1ccc([N+](=O)[O-])cc1)CCc1cc(O)c(O)c(O)c1-2 . Its measured EC50 is > 9.6 µg/mL

Reported EC50 for CSc1ccc2c(cc1=O)[C@@H](NC(=O)c1ccc([N+](=O)[O-])cc1)CCc1cc(OC(C)=O)c(OC(C)=O)c(OC(C)=O)c1-2 was > 0.15 µg/mL

Note to self: EC50 recorded for Br.CSc1ccc2c(cc1=O)[C@@H](NC(=O)c1ccc(N)cc1)CCc1cc(O)c(O)c(O)c1-2 was 9.7 µg/mL

----------
# Tested on: KB
# Procedure Details: In vitro growth inhibition of KB, epidermoid carcinoma of the nasopharynx.
# Format: functional, cell-based
# Condition Notes: Homo sapiens
Readings of EC50 for the listed molecules
Unit µg/mL implied. Number only.

CSc1ccc2c(cc1=O)[C@@H](NC(=O)c1cc(O)c(O)c(O)c1)CCc1cc(O)c(O)c(O)c1-2 | 9.6

Entry COc1cc2c(c(OC)c1OC)-c1ccc(OC)c(=O)cc1[C@@H](NC(C)=O)CC2 [COLCHICINE] , EC50 reported as 0.002
